The reported numbers originate from patent US20190248900A1.

- target or test system: T1, monkey PD1 protein (monkey)
- T1 construct: also called monkey PD-1 proteins
- test description: SPR ProteOn XPR36; format for monkey PD1 not described
property name: kon (M⁻¹ s⁻¹)
Numbers only; they are read as M⁻¹ s⁻¹.

# lookup: kon of PD1-49A2 (antibody, V domains shown, scFv-phage in the screening ELISA; whole IgG in the other assays; also called Parent 49A2) VH: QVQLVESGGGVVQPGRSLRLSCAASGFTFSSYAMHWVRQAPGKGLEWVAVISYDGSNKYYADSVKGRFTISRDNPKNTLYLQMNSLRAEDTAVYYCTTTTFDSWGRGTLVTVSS VL: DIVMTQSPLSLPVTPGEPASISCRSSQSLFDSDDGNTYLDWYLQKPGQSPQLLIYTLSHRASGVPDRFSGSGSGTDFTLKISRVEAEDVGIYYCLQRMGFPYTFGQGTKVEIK
168000
